The reported numbers originate from patent US20250382297A1.

A collection of molecules and their measured pIC50
Molecular target: FGFR3 (Homo sapiens (Human), UniProt P22607)
Sequence (P22607 23-806): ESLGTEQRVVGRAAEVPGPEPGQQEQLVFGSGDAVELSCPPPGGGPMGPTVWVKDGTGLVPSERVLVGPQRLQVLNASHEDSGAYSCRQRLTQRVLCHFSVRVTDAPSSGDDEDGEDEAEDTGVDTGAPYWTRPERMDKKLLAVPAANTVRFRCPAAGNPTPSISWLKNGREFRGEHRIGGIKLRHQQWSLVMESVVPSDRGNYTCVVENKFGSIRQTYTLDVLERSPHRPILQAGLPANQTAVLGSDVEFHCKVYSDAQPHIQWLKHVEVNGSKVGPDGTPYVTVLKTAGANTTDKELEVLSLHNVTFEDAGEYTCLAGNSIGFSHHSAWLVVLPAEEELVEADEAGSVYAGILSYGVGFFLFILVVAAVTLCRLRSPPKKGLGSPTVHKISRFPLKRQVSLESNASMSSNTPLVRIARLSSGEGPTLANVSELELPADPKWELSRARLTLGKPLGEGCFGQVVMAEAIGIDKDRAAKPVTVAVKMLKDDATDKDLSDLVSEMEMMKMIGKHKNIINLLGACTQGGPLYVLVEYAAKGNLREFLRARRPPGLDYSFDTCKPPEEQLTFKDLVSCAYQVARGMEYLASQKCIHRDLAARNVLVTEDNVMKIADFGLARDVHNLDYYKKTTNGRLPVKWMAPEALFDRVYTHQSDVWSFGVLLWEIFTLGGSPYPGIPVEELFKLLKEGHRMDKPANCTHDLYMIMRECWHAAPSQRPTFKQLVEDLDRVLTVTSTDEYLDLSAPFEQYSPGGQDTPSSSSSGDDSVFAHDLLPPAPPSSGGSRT
Assay: FGFR biochemical assay (LanthaScreen TR-FRET kinase assay), FGFR3
Conditions: read-out: FGFR3 IC50; incubation with enzyme at room temperature for 10 minutes before substrate; ATP 35 μM; FGFR3 0.1 nM
pIC50: −log10 of the molar value.

C=CC(=O)Nc1ccc(-c2c(-c3ccc(Oc4nccc(C)n4)c(F)c3)c(C(N)=O)c3cnc(CO)cn23)cc1 [Example 78]	> 8.00
C=CC(=O)N1CCc2cc(-c3c(-c4ccc(Oc5cccc(C)n5)cc4)c(C(N)=O)c4cnccn34)ccc21 [Example 14]	> 8.00
C=CC(=O)Nc1ccc(-c2c(-c3ccc(Oc4nccc(C)n4)c(F)c3)c(C(N)=O)c3cnc(C)cn23)cc1 [Example 35]	> 8.00
C=CC(=O)Nc1ccc(-c2c(-c3ccc(Oc4cccc(C)n4)cc3)c(C#N)c3sccn23)cc1 [Example 24]	< 6.00
C=CC(=O)Nc1ccc(-c2c(-c3ccc(Oc4cccc(C)n4)cc3)c(C(N)=O)c3cnc(C4COC4)cn23)cc1 [Example 76]	> 8.00

The molecule C=CC(=O)Nc1ccc(-c2c(-c3ccc(OC4CCCC4)cc3)c(C(N)=O)c3cnccn23)cc1 [Example 28] , tested on FGFR3 (Homo sapiens (Human), UniProt P22607), showed pIC50 of > 8.00

Item: C=CC(=O)Nc1ccc(-c2c(-c3ccc(Oc4nccc(C)n4)c(F)c3)c(C(N)=O)c3cnc(C)cn23)cn1 [Example 36] | System: FGFR3 (Homo sapiens (Human), UniProt P22607) | pIC50: > 8.00

###

Quick reference: IC50 of the listed items.
Molecular target: FGFR2 (Homo sapiens (Human), UniProt P21802)
Sequence (P21802 22-821): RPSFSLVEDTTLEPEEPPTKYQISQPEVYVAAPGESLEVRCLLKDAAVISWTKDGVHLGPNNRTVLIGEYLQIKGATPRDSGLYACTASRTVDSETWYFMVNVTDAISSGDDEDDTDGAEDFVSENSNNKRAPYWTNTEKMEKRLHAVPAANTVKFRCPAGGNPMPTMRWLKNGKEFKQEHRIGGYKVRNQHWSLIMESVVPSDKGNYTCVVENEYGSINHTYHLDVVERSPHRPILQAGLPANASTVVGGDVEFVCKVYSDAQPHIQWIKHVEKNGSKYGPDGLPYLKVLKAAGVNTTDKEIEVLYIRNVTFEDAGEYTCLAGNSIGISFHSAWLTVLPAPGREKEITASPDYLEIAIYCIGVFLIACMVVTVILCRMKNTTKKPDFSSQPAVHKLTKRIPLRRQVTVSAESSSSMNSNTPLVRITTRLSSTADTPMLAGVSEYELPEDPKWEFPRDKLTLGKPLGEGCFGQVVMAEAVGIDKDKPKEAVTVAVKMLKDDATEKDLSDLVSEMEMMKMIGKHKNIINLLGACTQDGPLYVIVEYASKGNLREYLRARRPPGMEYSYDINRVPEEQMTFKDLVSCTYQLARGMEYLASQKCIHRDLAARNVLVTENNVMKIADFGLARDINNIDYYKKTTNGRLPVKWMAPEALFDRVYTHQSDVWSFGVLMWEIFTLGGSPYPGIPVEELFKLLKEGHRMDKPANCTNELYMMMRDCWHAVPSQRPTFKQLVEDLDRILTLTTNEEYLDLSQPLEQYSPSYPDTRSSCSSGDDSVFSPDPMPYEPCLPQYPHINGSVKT
Experiment: FGFR biochemical assay (LanthaScreen TR-FRET kinase assay), FGFR2
Conditions: read-out: FGFR2 IC50; incubation with enzyme at room temperature for 10 minutes before substrate; ATP 22 μM; FGFR2 0.01 nM

Below are worked cases with known answers.
C=CC(=O)Nc1ccc(-c2c(-c3ccc(Oc4cccc(C)n4)cc3)c(C(N)=O)c3cnc(OC)cn23)cc1	< 10 nM
C=CC(=O)Nc1ccc(-c2c(-c3ccc(Oc4cccc(C)n4)cc3)c(C(N)=O)c3cnccn23)cn1	< 10 nM
C=CC(=O)Nc1ccc(-c2c(-c3ccc(Oc4cccc(C)n4)cc3)c(C(N)=O)c3cnc(S(=O)(=O)NC)cn23)cc1	< 10 nM
Cc1ccnc(Oc2ccc(-c3c(C(N)=O)c4cnc(CO)cn4c3-c3ccc(NC(=O)/C=C/CN(C)C)cc3)cc2)n1	< 10 nM

molecule `C=C(F)C(=O)Nc1ccc(-c2c(-c3ccc(Oc4nccc(C)n4)c(F)c3)c(C(N)=O)c3cnc(C)cn23)cn1` , IC50 observed: < 10 nM

Recorded result, `C=CC(=O)Nc1ccc(-c2c(-c3ccc(Oc4nc(C)cs4)cc3)c(C(N)=O)c3cnccn23)cc1` , IC50: < 10 nM

IC50 reported for this molecule `C=CC(=O)Nc1ccc(-c2c(-c3ccc(Oc4cccc(C)n4)cc3)c(C(N)=O)c3ccnc(C)n23)cc1` : < 10 nM

###

// reported IC50 per item
Biological target: FGFR2 (Homo sapiens (Human))
Assay: FGFR biochemical assay (LanthaScreen TR-FRET kinase assay), FGFR2

Worked examples follow.
C=CC(=O)Nc1ccc(-c2c(-c3ccc(Oc4cccc(C)n4)cc3)c(C(N)=O)c3n2CCN(C)C3)cc1	10 to 100 nM
CC#CC(=O)Nc1ccc(-c2c(-c3ccc(C(=O)NCC4(F)COC4)cc3)c(C(N)=O)c3cnc(C)cn23)cc1	10 to 100 nM

// moving on: another record for IC50
Entry under test: `C=CC(=O)N1CC2(CC=C(c3c(-c4ccc(Oc5nccc(C)n5)cc4)c(C(N)=O)c4cnc(C)cn34)CC2)C1` . Its IC50 was 100 to 1000 nM
